Taken from patent US20110256132A1.

# Mean IC50, A204 in vitro activity assay annotations
# assayed system: T1, mature myostatin (recombinant, dimeric) (mouse polyprotein used for in-house …, UniProt O08689 268-376)
# T1 sequence: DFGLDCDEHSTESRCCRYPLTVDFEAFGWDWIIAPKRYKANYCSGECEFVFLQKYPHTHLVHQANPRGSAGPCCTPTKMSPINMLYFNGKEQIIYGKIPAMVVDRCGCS
# test details: cell-based or functional assay
Report as a plain number; the unit nM is understood.

In: Recorded Mean IC50, A204 in vitro activity assay for H2L2 N54Q (H2L2-N54Q) (antibody, human IgG1, kappa, V domains shown) VH: QVQLVQSGAEVKKPGASVKVSCKASGYSFTGYFMHWVRQAPGQGLEWMGNIYPYQGVSNYNQRFKARVTMTTDTSTSTAYMELRSLRSDDTAVYYCARRYYYGTGPADWYFDVWGQGTLVTVSS VL: DIQMTQSPSSLSASVGDRVTITCKASQDINSYLSWFQQKPGKAPKSLIYRANRLVDGVPSKFSGSGSGTDYTLTISSLQPEDFATYYCLQCDEFPLTFGQGTKLEIKR , please?
Out: 12

In: What does the data say about its Mean IC50, A204 in vitro activity assay? Entry: H2L2 C91S (H2L2-C91S) (antibody, human IgG1, kappa, V domains shown, Humanised, human IgG1/kappa; also called base molecule; base H2L2-C91S) VH: QVQLVQSGAEVKKPGASVKVSCKASGYSFTGYFMHWVRQAPGQGLEWMGNIYPYNGVSNYNQRFKARVTMTTDTSTSTAYMELRSLRSDDTAVYYCARRYYYGTGPADWYFDVWGQGTLVTVSS VL: DIQMTQSPSSLSASVGDRVTITCKASQDINSYLSWFQQKPGKAPKSLIYRANRLVDGVPSKFSGSGSGTDYTLTISSLQPEDFATYYCLQSDEFPLTFGQGTKLEIKR
Out: 9.26

In: Returns the measured Mean IC50, A204 in vitro activity assay for the input binder. Input: H2L2 N54Q & C91S (H2L2-N54Q-C91S) (antibody, human IgG1, kappa, V domains shown) VH: QVQLVQSGAEVKKPGASVKVSCKASGYSFTGYFMHWVRQAPGQGLEWMGNIYPYQGVSNYNQRFKARVTMTTDTSTSTAYMELRSLRSDDTAVYYCARRYYYGTGPADWYFDVWGQGTLVTVSS VL: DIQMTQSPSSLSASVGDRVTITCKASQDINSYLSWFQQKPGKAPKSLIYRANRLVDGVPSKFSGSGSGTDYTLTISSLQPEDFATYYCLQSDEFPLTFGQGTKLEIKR
Out: 10.4

In: Value lookup for Mean IC50, A204 in vitro activity assay; key = H2L2 (antibody, human IgG1, kappa, V domains shown, Humanised, human IgG1 wild type/kappa) VH: QVQLVQSGAEVKKPGASVKVSCKASGYSFTGYFMHWVRQAPGQGLEWMGNIYPYNGVSNYNQRFKARVTMTTDTSTSTAYMELRSLRSDDTAVYYCARRYYYGTGPADWYFDVWGQGTLVTVSS VL: DIQMTQSPSSLSASVGDRVTITCKASQDINSYLSWFQQKPGKAPKSLIYRANRLVDGVPSKFSGSGSGTDYTLTISSLQPEDFATYYCLQCDEFPLTFGQGTKLEIKR
Out: 10.1
